Data provenance is paper PMC11629607.

Entries annotated with measured stoichiometry N
# Target Or Test System: T1, mouse CNPase catalytic domain (mouse, UniProt P16330)
# T1 construct: 2′,3′-cyclic nucleotide 3′-phosphodiesterase (CNPase), mouse, catalytic (C-terminal phosphodiesterase) domain; As used in ITC, crystallisation and SEC-SAXS; also called mCNPase catalytic domain; C-terminal phosphodiesterase domain; source: E. coli Rosetta (DE3), pTH27 vector, autoinduction, purified (SEC)
# T1 sequence (P16330 179-398): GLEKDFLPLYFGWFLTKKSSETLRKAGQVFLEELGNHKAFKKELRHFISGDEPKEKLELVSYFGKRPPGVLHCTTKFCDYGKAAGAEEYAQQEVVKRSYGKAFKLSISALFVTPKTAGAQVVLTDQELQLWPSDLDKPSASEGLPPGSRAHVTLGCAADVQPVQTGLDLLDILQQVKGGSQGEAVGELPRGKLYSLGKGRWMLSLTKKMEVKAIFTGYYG
# Procedure Details: ITC; 8.5–11 μM CNPase catalytic domain in the cell, 88–95 μM Nb in the syringe; 20 mM HEPES, 150 mM NaCl, 0.5 mM TCEP, pH 7.5; +25°C; 1:1 binding model; single experiments
# Condition Summary: both partners purified
Answer with a number only.

Answered cases to consult:
Binder: anti-CNPase nanobody NbCNP 7E (VHH, source: E. coli Shuffle T7, His6-MaBP fusion (pHMGWA), purified (NiNTA, TEV, reverse NiNTA, SEC); not shown: His6, N-terminal, cleaved) VHH: EVQLEESGGGWVHPGGSLRLSCAASGNVFGVNTMAWYRQAPGKQREQRELVASITDYGTTEYADSVKGRFTISGDNAKATVYLQMNSLKPEDTAVYYCNMDLTVMTATSSLYAYDYWGQGTQVTVSS
stoichiometry N: 0.863
//
Binder: anti-CNPase nanobody NbCNP 10E (VHH, Purified as described for anti-Arc Nbs (Markusson et al., 2022); source: E. coli, pTH27 vector, purified (SEC, TEV, reverse NiNTA, SEC); not shown: His6, N-terminal, cleaved) VHH: EVQLEESGGGLVQPGGSLRLSCAVSGITLDDFGIGWFRQAPGKEREGVACISPGYEHIYYADSAKGRFTISRDNAKNTVYLQMNNLKPWDTGVYYCAADNDLPDRLWGGSDWSDPSPYDYWGQGTQVTVSS
stoichiometry N: 0.804
//
Binder: MaBP-10E (His6-maltose-binding protein fusion of NbCNP 10E) (VHH, as the VHH of m9; source: E. coli Shuffle T7, pHMGWA vector, purified; not shown: His6, N-terminal, kept) VHH: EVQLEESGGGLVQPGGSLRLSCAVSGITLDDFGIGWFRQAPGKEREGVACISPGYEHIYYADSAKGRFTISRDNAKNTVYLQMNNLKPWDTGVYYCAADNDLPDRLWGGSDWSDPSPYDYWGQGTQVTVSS
stoichiometry N: 0.836

### Prompt Please look up its stoichiometry N: anti-CNPase nanobody NbCNP 8C (VHH, Extra disulphide between CDR2 and CDR3; source: E. coli Shuffle T7, His6-MaBP fusion (pHMGWA), purified (NiNTA, TEV, reverse NiNTA, SEC); not shown: His6, N-terminal, cleaved) VHH: EVQLEESGGGLVQAGGSLTLSCAASGFTFDDYAMGWYRQAPGKERVGVSCISRTDGYTYYLDSVKGRFTISTDHAKHTVYLQMNNLKPDDTGLYYCAADADPEYGSRCPDPYYGMDYWGKGILVTVSS
### Response 0.914
